# Tested on: UO-31
# assay_procedure: NCI tumour cell line growth inhibition, 48 h
Calls of active or inactive are those of the source. Rule as the data show it: active = GI50 up to about 1.1 µM and inactive = higher.
Measured GI50 by item

Worked set:
molecule=COc1cc(-c2cc(O)c(-c3ccc4ccccc4n3)c(O)n2)cc(OC)c1OC measured_property=GI50 result="68.7 µM (inactive)"
molecule=CCCCCCCCCCCCCP(=O)(OC)OC measured_property=GI50 result="16.3 µM (inactive)"
molecule="COc1ccc(C2C(C#N)=C(S)N(C3OC(CO)C(O)C(O)C3O)C(c3ccccc3)=C2C(C)=O)cc1 (stereo not drawn)" measured_property=GI50 result="> 100 µM (inactive)"
molecule=Cn1c(=O)c2c3oc(=O)cc(O)c3c(=O)n3c4ccccc4n(c1=O)c23 measured_property=GI50 result="28.8 µM (inactive)"
molecule=Clc1ccc(C(SCc2ccccc2)SCc2ccccc2)cc1 measured_property=GI50 result="> 10 µM (inactive)"

QUERY: Form field: GI50 recorded for COc1ccc(C2=Nn3c(C)nnc3S/C2=C\c2ccc(-c3ccc([N+](=O)[O-])cc3)o2)cc1 with UO-31 (enter value)
RESULT: 15.1 µM (inactive)

QUERY: Form field: GI50 recorded for CN(C)c1ccc(/C=C2\C[C@H]3[C@@H]4CC=C5C[C@@H](N6CCCC6)CC[C@]5(C)[C@H]4CC[C@]3(C)[C@H]2O)cc1 with UO-31 (enter value)
RESULT: 0.838 µM (active)

====

# System: EKVX
# assay_procedure: NCI tumour cell line growth inhibition, 48 h
Active and inactive are the calls of the source. Cut-off read from the data, not from the text of the source: active = GI50 up to about 1.1 µM and inactive = higher.
measured_property: GI50

Worked set:
compound=C/C(=N\Nc1nc2ccccc2[nH]1)c1cccc[n+]1[O-] result="3.03 µM (inactive)"
compound=CO/N=C(\C(=O)[N-]n1cn[n+](CC(=O)OC(C)(C)C)c1)c1csc(NC(c2ccccc2)(c2ccccc2)c2ccccc2)n1 result="> 10 µM (inactive)"
compound=C=C1CC[C@@H]2[C@](C)(COC(=O)CCC(=O)OC)CCC[C@@]2(C)[C@@H]1CCC1=CC(=O)OC1 result="> 100 µM (inactive)"
compound=COC(=O)[C@@H]1O[C@]12[C@@H](CO[Si](C)(C)C(C)(C)C)O[C@@H](n1cc(C)c(=O)[nH]c1=O)[C@@H]2O[Si](C)(C)C(C)(C)C result="23.5 µM (inactive)"
compound=CCCn1c(=O)c(N2CCN(c3ccccc3)CC2)nc2sc3ccccc3c21 result="> 100 µM (inactive)"

QUERY: # GI50 lookup, item N#C/C(=C\c1ccc(O)c(O)c1)C(N)=S [TYRPHOSTIN 47]
RESULT: > 100 µM (inactive)

QUERY: # GI50 lookup, item Cc1nn(-c2ccccc2)c(C)c1/C=N/N=C1\S/C(=C\c2ccc(Cl)cc2)C(=O)N1c1ccccc1
RESULT: > 100 µM (inactive)

QUERY: # GI50 lookup, item CCCCCCCCCCCCCP(=O)(OC)OC
RESULT: 19.4 µM (inactive)

QUERY: # GI50 lookup, item c1c2c(cc(-n3nnc4c3CCCCCC4)c1-n1nnc3c1CCCCCC3)CCCCCC2
RESULT: 10.7 µM (inactive)

====

# Test system: SK-MEL-28
# assay_procedure: NCI tumour cell line growth inhibition, 48 h
The source made the active and inactive calls. Cut-off read from the data, not from the text of the source: active = GI50 up to about 1.1 µM and inactive = higher.
measured_property: GI50

Worked set:
molecule=O=C1C[C@H](COCc2ccccc2)NC(=O)C[C@H](COCc2ccccc2)NC(=O)C[C@H](COCc2ccccc2)N1 result="> 100 µM (inactive)"
molecule=COc1cc2c(cc1OC)/C(=C\c1ccccc1N)C(=O)OC2 result="17 µM (inactive)"
molecule=Cc1ccc(C(=O)O)c(/C=C2\Cc3cc(C)cc(C)c3C2=O)c1 result="> 100 µM (inactive)"
molecule=O=C(O)c1ccc(Cc2ccccc2C(=O)O)cc1 result="> 100 µM (inactive)"
molecule=CCCCCCCCCC(=O)NCCc1c[nH]c2ccc(OC)cc12 result="17.9 µM (inactive)"
molecule=CCOC(=O)C(C(=O)OCC)=C1N[C@H](C(=O)OCC)CS1 result="> 100 µM (inactive)"
molecule="NC(=S)N/N=C1\\CCCC1C(O)(C(F)(F)Cl)C(F)(F)Cl (stereo unspecified)" result="> 10 µM (inactive)"
molecule="CC(=O)c1cc(CC2Cc3cc4c(cc3C2=O)CCC4)cc2c1CCC2 (stereo unspecified)" result="> 100 µM (inactive)"
molecule=CCOC(=O)c1ccc(C(=O)/C(C(C)=O)=C2\CCCN2C)n1C result="> 100 µM (inactive)"
molecule=CCOP(=O)(/C=C\n1cc(C)c(=O)[nH]c1=O)OCC result="> 100 µM (inactive)"

Attention now turns to another entry.
QUERY: # GI50 lookup, item CCOC(=O)Cn1c(=O)n(C)c(=O)c2[nH]cnc21
RESULT: > 100 µM (inactive)

====

# Test system: HT-29
# assay_procedure: NCI tumour cell line growth inhibition, 48 h
Activity calls are given as the source filed them. Rule as the data show it: active = GI50 up to about 1.1 µM and inactive = higher.
Response enum: class 1 = active, class 0 = inactive

Answered cases to consult:
smiles_entry=COc1cccc(C=O)c1C(=O)c1cc(O)ccc1O category="class 0"
smiles_entry=CN(CCNC(=O)c1cn(C)c2c1ccc1ccccc12)CCNC(=O)c1cn(C)c2c1ccc1ccccc12 category="class 0"
smiles_entry=CO/N=C(\C(=O)[N-]n1cn[n+](CC(=O)OC(C)(C)C)c1)c1csc(NC(c2ccccc2)(c2ccccc2)c2ccccc2)n1 category="class 0"

QUERY: How did this test come out for CCCCCCCCCCCCCCCCCCOP1(=O)OCCO1 ?
RESULT: class 0

QUERY: How did this test come out for O=[N+]([O-])c1cccc2nc3ccccc3c(NCCNCCO)c12 ?
RESULT: class 1

====

Measured GI50 by item
# System: PC-3
# assay_procedure: NCI tumour cell line growth inhibition, 48 h
Calls of active or inactive are those of the source. No stated cut-off is given here; in the data, active = GI50 up to about 1.1 µM and inactive = higher.

QUERY: # GI50 lookup, item O=C1CC(C(OCc2ccccc2)C(OCc2ccccc2)C(OCc2ccccc2)C(COCc2ccccc2)OCc2ccccc2)CC(=O)N1 (stereo not given)
RESULT: > 100 µM (inactive)

QUERY: # GI50 lookup, item O=C1/C(=N\NC(=S)Nc2ccc(Cl)cc2)c2cc([N+](=O)[O-])ccc2N1CN1CCOCC1
RESULT: 10.2 µM (inactive)

QUERY: # GI50 lookup, item Clc1sc(Cl)c2c1[C@@H](Cl)C[C@@H]2Br
RESULT: > 100 µM (inactive)

QUERY: # GI50 lookup, item S=c1[nH]nc(Cn2c3ccc(Br)cc3c3nc4ccccc4nc32)o1
RESULT: 4.79 µM (inactive)

QUERY: # GI50 lookup, item CSC(=O)c1sc(SC)[n+](-c2ccccc2)c1O
RESULT: 14 µM (inactive)

QUERY: # GI50 lookup, item COc1ccc(N[C@H]([C@@H](c2ccccc2)[S+]([O-])c2ccc(C)cc2)C(F)(F)F)cc1 (stereo not given in full)
RESULT: 21.1 µM (inactive)

QUERY: # GI50 lookup, item CCOC(=O)c1nc2cc(C(F)(F)F)ccc2nc1Nc1ccc(Cl)c(Cl)c1
RESULT: 75.2 µM (inactive)

QUERY: # GI50 lookup, item NC(=S)N/N=C1\CCCC1C(O)(C(F)(F)Cl)C(F)(F)Cl (stereo not given)
RESULT: > 10 µM (inactive)

QUERY: # GI50 lookup, item COc1ccc(C2C(C#N)=C(S)N(C3OC(CO)C(O)C(O)C3O)C(c3ccccc3)=C2C(C)=O)cc1 (stereo not given)
RESULT: 48.2 µM (inactive)

QUERY: # GI50 lookup, item Oc1ccc(-c2cc(-c3c(O)cc(O)cc3O)on2)cc1
RESULT: 48 µM (inactive)

====

Measured GI50 by item
# System: HCT-15
Write down the numeric answer in µM and omit the unit.

compound=COc1ccc(C2=NN(c3ccccc3)C[N+](c3ccc(OC)cc3)=N2)cc1 result_number=43.7
compound="CCOC(=O)[C@H]1Nc2ccccc2C2c3ccccc3CC21 (some centres not stated)" result_number=49
compound="O=C1CC(O)(c2ccccc2)C(c2ccccc2)=C1c1ccccc1 (configuration not stated)" result_number=32.3
compound=Cc1cc2c(c(S(=O)(=O)c3ccc(Cl)cc3[N+](=O)[O-])c1)NCCC2 result_number=70.8
compound=C[C@]12CC[C@@H]3c4ccc(O)cc4CC[C@H]3[C@@H]1C/C(=C\c1ccncc1)C2=O result_number=7.29

QUERY: # GI50 lookup, item CN(CCNC(=O)c1cn(C)c2c1ccc1ccccc12)CCNC(=O)c1cn(C)c2c1ccc1ccccc12
RESULT: 1.26

QUERY: # GI50 lookup, item Cc1ccc(-c2nc3n(c2/C=N\N=C(N)N)CCS3)cc1
RESULT: 17.5

QUERY: # GI50 lookup, item COc1ccc(/N=N/c2c(C)c(C#N)c(=S)n(C3OC(CO)C(O)C(O)C3O)c2C)cc1 (configuration not stated)
RESULT: 53.1

QUERY: # GI50 lookup, item Cc1cccc(C(C)C)c1N1C(=O)C(=O)C(c2nc3ccccc3o2)C(=O)C1=O
RESULT: 35.5

QUERY: # GI50 lookup, item c1c2c(cc(-n3nnc4c3CCCCCC4)c1-n1nnc3c1CCCCCC3)CCCCCC2
RESULT: 5.19

QUERY: # GI50 lookup, item COC(=O)c1cc2c(cc1CC(Cc1ccc3c(c1)CCC3)C(=O)OC)CCC2 (configuration not stated)
RESULT: 39.2
